So I've got a bunch of compounds here, and I need their pIC50 values.
- Test system: CD69 expression on CD19+ B cells in human whole blood
- experimental details: In Vitro whole blood CD69 Assay
- Assay type: cell-based
- experimental parameters: B-cell; human heparinized whole blood, anti-human IgD stimulation overnight, CD19+ B cells, flow cytometry; read-out: In Vitro HWB CD69 Assay IC50 Score
pIC50: −log10 of the molar value.

Problem: Please provide the recorded pIC50 for COCCOc1cn2nccc2c(-c2ccc(CNC(=O)c3nc(C4(C)CC4)no3)c(C)c2)n1 , tested on CD69 expression on CD19+ B cells in human whole blood.
Result: 5.00 to 6.00

Problem: Similarly, Cn1cc(-c2cn3nccc3c(-c3ccc(CNC(=O)c4noc(C(C)(C)C)n4)nc3)n2)cn1 ?
Result: 5.00 to 6.00

Problem: Param item: CC1CN(c2nc(-c3cnn(C)c3)cn3nccc23)CCC1CNC(=O)c1noc(C2(C)CC2)n1 (centres unmarked)
Result: 5.00 to 6.00

Problem: Entry Cn1cc(-c2cn3nccc3c(-c3ccc(CNC(=O)c4nc(C(C)(C)C)no4)cc3)n2)cn1 please
Result: > 6.00

Problem: Then Cn1cc(-c2cn3nccc3c(N3CCC(CNC(=O)c4cn(C(C)(C)C)nn4)CC3)n2)cn1 ?
Result: 5.00 to 6.00

Problem: And then Cn1cc(-c2cn3nccc3c(-c3ccc(CNC(=O)c4nnn(C(C)(C)C)n4)c(F)c3)n2)cn1 , what is it?
Result: > 6.00

Problem: Next entry: CC(C)(C)n1nnc(C(=O)NCc2ccc(-c3nc(N4CCOCC4)cn4nccc34)cc2)n1
Result: 5.00 to 6.00

Problem: Also, Cn1cc(-c2cn3nccc3c(-c3ccc(CNC(=O)c4coc(C(C)(C)C)n4)c(F)c3)n2)cn1 please.
Result: > 6.00

====

- System: CD69 expression on CD19+ B cells in human whole blood
- experimental details: In Vitro whole blood CD69 Assay
- Assay type: cell-based
- experimental parameters: B-cell; human heparinized whole blood, anti-human IgD stimulation overnight, CD19+ B cells, flow cytometry; read-out: In Vitro HWB CD69 Assay IC50 Score
pIC50: −log10 of the molar value. Counter-ions that a name gives are not always drawn.
parameter measured: pIC50

Problem: For the compound Cc1cc(-c2nc(-c3cnn(C)c3)cn3nccc23)ccc1CN1CCN(CC(C)C)CC1=O [Example 30] , what pIC50 is on record?
Result: 5.00 to 6.00

Problem: Same lookup for Cn1cc(-c2cc3nccn3c(-c3ccc(CNC(=O)c4noc(C5(C)CC5)n4)cc3)n2)cn1 [Example 60] , please.
Result: 5.00 to 6.00

Problem: Again, but for Cn1cc(-c2cn3nccc3c(-c3ccc(CNC(=O)c4cn(C(C)(C)C)nn4)c(F)c3)n2)cn1 [Example 9]
Result: > 6.00

Problem: Try the compound Cc1cc(-c2nc(-c3cnn(C)c3)cn3nccc23)ccc1CNC(=O)c1ccn(C(C)(C)C)n1 [Example 18]
Result: > 6.00

Problem: Try Cn1cc(-c2cc(-c3ccc(CNC(=O)c4noc(C5(C)CC5)n4)cc3)n3cnnc3c2)cn1 [Example 76] next.
Result: 5.00 to 6.00

Problem: Continue with CN1CCN(c2cn3nccc3c(-c3ccc(CNC(=O)c4cn(C(C)(C)C)nn4)c(F)c3)n2)CC1 [Example 128, trifluoroacetate]
Result: 5.00 to 6.00

Problem: Request: Cn1cc(-c2cn3nccc3c(-c3ccc(CNC(=O)c4noc(C(C)(C)C)n4)c(F)c3F)n2)cn1 [Example 88]
Result: > 6.00

====

Measured pIC50 (BTK (Homo sapiens, UniProt Q06187))
pIC50: −log10 of the molar value.

Problem: Query for BTK (Homo sapiens, UniProt Q06187): what pIC50 does the record show for Cn1cc(-c2cc3nccn3c(-c3ccc(CNC(=O)c4nc(C5(CF)CC5)no4)cc3)n2)cn1 [Example 63] ?
Result: 8.00 to 9.00

Problem: Would you mind doing COCCOc1cn2nccc2c(-c2ccc(CNC(=O)c3nc(C4(C)CC4)no3)c(C)c2)n1 [Example 133] as well?
Result: 8.00 to 9.00

Problem: // repeat for CC(C)(C)c1nc(C(=O)NCc2ccc(-c3nccn4nccc34)cc2Cl)no1 [Example 82] and report
Result: 8.00 to 9.00

Problem: Same thing, different compound: Cn1cc(-c2cn3nccc3c(-c3ccc(CNC(=O)c4nc(C(C)(C)C)no4)cc3F)n2)cn1 [Example 108]
Result: > 9.00

Problem: What about this compound? Cc1cc(-c2nc(-c3cnn(C)c3)cc3nccn23)ccc1CNC(=O)c1noc(C(C)(C)C)n1 [Example 78]
Result: > 9.00

Problem: # repeat for Cn1cc(-c2cn3nccc3c(N3CCC(C)(CNC(=O)c4noc(C(C)(C)C)n4)C3)n2)cn1 (centres unmarked) [Example 42]
Result: 5.00 to 6.00

Problem: Query CC(C)(C)n1cc(C(=O)NCc2ccc(-c3nc(N4CCOCC4)cn4nccc34)cc2)nn1 [Example 26] next
Result: 6.00 to 8.00

Problem: Queued: Cn1cc(-c2cn3nccc3c(N3CC[C@H](CNC(=O)c4coc(C(C)(C)C)n4)[C@H](F)C3)n2)cn1 [Example 153]
Result: 8.00 to 9.00

====

- system tested: BTK (Homo sapiens, UniProt Q06187)
- Sequence (Q06187 whole entry): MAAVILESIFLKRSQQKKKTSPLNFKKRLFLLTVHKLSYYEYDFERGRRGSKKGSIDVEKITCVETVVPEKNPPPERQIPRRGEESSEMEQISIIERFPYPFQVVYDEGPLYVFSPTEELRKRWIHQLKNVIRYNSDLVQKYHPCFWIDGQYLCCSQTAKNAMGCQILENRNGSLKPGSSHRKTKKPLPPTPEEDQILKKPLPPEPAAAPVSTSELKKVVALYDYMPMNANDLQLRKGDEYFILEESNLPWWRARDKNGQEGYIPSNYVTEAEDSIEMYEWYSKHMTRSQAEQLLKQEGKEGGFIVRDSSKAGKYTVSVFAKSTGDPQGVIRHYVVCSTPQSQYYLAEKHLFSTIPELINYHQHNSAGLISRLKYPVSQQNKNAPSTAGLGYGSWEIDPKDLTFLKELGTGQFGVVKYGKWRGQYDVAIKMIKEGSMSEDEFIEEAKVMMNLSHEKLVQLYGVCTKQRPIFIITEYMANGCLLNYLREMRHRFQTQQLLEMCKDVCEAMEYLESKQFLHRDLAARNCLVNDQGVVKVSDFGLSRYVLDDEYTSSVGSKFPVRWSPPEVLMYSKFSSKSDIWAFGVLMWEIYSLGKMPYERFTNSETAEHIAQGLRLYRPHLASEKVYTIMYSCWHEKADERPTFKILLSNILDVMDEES
Where a name gives a salt, the structure may show the parent alone.
parameter measured: IC50

Problem: Look up IC50 with BTK (Homo sapiens, UniProt Q06187) for this compound: Cc1cc(-c2nc(-c3cnn(C)c3)cn3nccc23)ccc1CN1CCN(CC2COC2)CC1=O
Result: 10 to 1000 nM

Problem: Please answer likewise for Cn1cc(-c2cn3nccc3c(N3CCCC(CNC(=O)c4cn(C(C)(C)C)nn4)CC3)n2)cn1 (stereo not shown)
Result: 10 to 1000 nM

Problem: Quick one: CN1CCN(c2cn3nccc3c(-c3ccc(CNC(=O)c4cn(C(C)(C)C)nn4)c(F)c3)n2)CC1 [Example 128, trifluoroacetate]
Result: 10 to 1000 nM

Problem: Also Cc1cc(-c2nc(N3CCN(C)CC3)cn3nccc23)ccc1CNC(=O)c1noc(C2(C)CC2)n1 [Example 131, trifluoroacetate] ?
Result: 1 to 10 nM

Problem: Likewise for C[C@@H]1C[C@H](CNC(=O)c2cn(C(C)(C)C)nn2)CCN1c1nc(-c2cnn(C)c2)cn2nccc12 (single isomer, unassigned) ?
Result: 10 to 1000 nM

Problem: Repeat for the following compound: Cn1cc(-c2cn3nccc3c(N3CCC(CNC(=O)c4noc(C(C)(C)C)n4)CC3)n2)cn1
Result: 1 to 10 nM

Problem: Another compound: CC(C)CN1CCN(CC2CCN(c3nc(-c4cnn(C)c4)cn4nccc34)CC2)C(=O)C1
Result: 10 to 1000 nM

Problem: # repeat for Cn1cc(-c2cn3ncnc3c(N3CCC(CNC(=O)c4cn(C(C)(C)C)nn4)CC3)n2)cn1
Result: 10 to 1000 nM

Problem: And for Cn1cc(-c2cn3nccc3c(-c3cc(F)c(CNC(=O)c4coc(C(C)(C)C)n4)cc3F)n2)cn1 ?
Result: 1 to 10 nM

Problem: Another compound to check: Cn1cc(-c2cn3nccc3c(-c3ccc(CNC(=O)c4cn(C(C)(C)C)nn4)c(F)c3F)n2)cn1
Result: < 1 nM

Problem: Entry Cn1cc(-c2cc(-c3ccc(CNC(=O)c4nc(C(C)(C)CF)no4)c(F)c3)c3ccnn3c2)cn1 please
Result: < 1 nM

Problem: Likewise for Cn1cc(-c2cn3nccc3c(N3CCCC(CNC(=O)c4noc(C(C)(C)C)n4)CC3)n2)cn1 (stereo not shown) ?
Result: 10 to 1000 nM

Problem: Queued: Cc1cc(-c2nc(-c3cnn(C4COC4)c3)cn3nccc23)ccc1CNC(=O)c1noc(C(C)(C)C)n1
Result: < 1 nM

====

For each entry below, report its IC50 value.
- Tested on: CD69 expression on CD19+ B cells in human whole blood
- experimental details: In Vitro whole blood CD69 Assay
- Assay type: cell-based
- experimental parameters: B-cell; human heparinized whole blood, anti-human IgD stimulation overnight, CD19+ B cells, flow cytometry; read-out: In Vitro HWB CD69 Assay IC50 Score
Counter-ions that a name gives are not always drawn.

Problem: Recorded IC50 of Cn1cc(-c2cn3nccc3c(N3CCC(CNC(=O)c4noc(C5(C)CC5)n4)CC3)n2)cn1 [Example 137] , please.
Result: 1000 to 10000 nM

Problem: Similarly, Cn1cc(-c2cn3nccc3c(N3CCC(C)(CNC(=O)c4noc(C(C)(C)C)n4)CC3)n2)cn1 [Example 41] ?
Result: 1000 to 10000 nM

Problem: Same question for Cn1cc(-c2cn3nccc3c(-c3ccc(CNC(=O)c4noc(C(C)(C)C)n4)c(C(F)F)c3)n2)cn1 [Example 86] please.
Result: < 1000 nM

Problem: Same read-out for Cn1cc(-c2cn3nccc3c(-c3ccc(CNC(=O)c4coc(C(C)(C)C)n4)c(F)c3F)n2)cn1 [Example 90] ?
Result: < 1000 nM

Problem: What about this compound? Cn1cc(-c2cc3nccn3c(-c3ccc(CNC(=O)c4cn(C(C)(C)C)nn4)cc3)n2)cn1 [Example 59]
Result: < 1000 nM

Problem: Same question, Cn1cc(-c2cn3nccc3c(-c3ccc(CNC(=O)c4cn(C(C)(C)C)nn4)cc3)n2)cn1 [Example 4] this time
Result: < 1000 nM

Problem: And for COCCOc1cn2nccc2c(-c2ccc(CNC(=O)c3noc(C(C)(C)C)n3)c(C)c2)n1 [Example 132] ?
Result: 1000 to 10000 nM

Problem: # iterate: CC1CC(CNC(=O)c2noc(C3(C)CC3)n2)CCN1c1nc(-c2cnn(C)c2)cn2nccc12 (centres unmarked) [Example 139]
Result: 1000 to 10000 nM

Problem: Then Cn1cc(-c2cn3nccc3c(N3CCC(CN4CCN(CC(C)(C)C)CC4=O)CC3)n2)cn1 [Example 172] ?
Result: 1000 to 10000 nM

Problem: How about this compound: Cc1cc(-c2nc(N3CCN(C)CC3)cn3nccc23)ccc1CNC(=O)c1cn(C(C)(C)C)nn1 [Example 121, trifluoroacetate]
Result: 1000 to 10000 nM

Problem: Quick one: Cn1cc(-c2cn3nccc3c(-c3cc(F)c(CNC(=O)c4cn(C(C)(C)C)nn4)cc3F)n2)cn1 [Example 98]
Result: 1000 to 10000 nM

Problem: Would you kindly repeat that for Cc1cc(-c2nc(-c3cnn(C)c3)cc3nccn23)ccc1CN1Cc2nc(C(C)(C)C)sc2C1=O [Example 38] ?
Result: 1000 to 10000 nM

Problem: Cool, now Cn1cc(-c2cn3nccc3c(-c3ccc(CNC(=O)c4noc(C5(C)CC5)n4)cc3)n2)cn1 [Example 5]
Result: < 1000 nM

Problem: How about Cc1cc(-c2nc(-c3cnn(C)c3)cn3nccc23)ccc1CNC(=O)c1nnn(C(C)(C)C)n1 [Example 15] ?
Result: < 1000 nM

Problem: Please answer likewise for Cn1cc(-c2cn3nccc3c(N3CC[C@H](CNC(=O)c4coc(C(C)(C)C)n4)[C@H](F)C3)n2)cn1 [Example 153]
Result: 1000 to 10000 nM

Problem: Same again, this time with Cn1cc(-c2cn3nccc3c(N3CC[C@@H](CNC(=O)c4noc(C(C)(C)C)n4)[C@@H](F)C3)n2)cn1 (single isomer, unassigned) [Example 156]
Result: < 1000 nM

Problem: Same again, this time with Cn1cc(-c2cc(-c3ccc(CNC(=O)c4cn(C(C)(C)C)nn4)c(F)c3)c3ccnn3c2)cn1 [Example 69]
Result: < 1000 nM

Problem: Would you mind doing Cn1cc(-c2cn3nccc3c(-c3cc(F)c(CNC(=O)c4noc(C(C)(C)C)n4)cc3F)n2)cn1 [Example 84] as well?
Result: < 1000 nM

Problem: Try this compound too: Cn1cc(-c2cn3nccc3c(N3CCC(C)(CNC(=O)c4nnn(C(C)(C)C)n4)CC3)n2)cn1 [Example 43]
Result: 1000 to 10000 nM

Problem: Would you kindly repeat that for Cn1cc(-c2cn3nccc3c(-c3ccc(CNC(=O)c4cnn(C(C)(C)C)n4)cc3F)n2)cn1 [Example 113] ?
Result: 1000 to 10000 nM

Problem: Another compound: Cn1cc(-c2cn3nccc3c(-c3ccc(CNC(=O)c4noc(C(C)(C)CF)n4)cc3)n2)cn1 [Example 22]
Result: < 1000 nM

Problem: Query Cn1cc(-c2cn3nccc3c(N3CCC(C)(CNC(=O)c4nc(C(C)(C)C)no4)CC3)n2)cn1 [Example 47] next
Result: 1000 to 10000 nM

Problem: Would you mind doing Cn1cc(-c2cn3nccc3c(-c3cc(F)c(CNC(=O)c4nc(C(C)(C)C)no4)cc3F)n2)cn1 [Example 94] as well?
Result: < 1000 nM

Problem: Lookup Cn1cc(-c2cn3nccc3c(N3CC[C@H](CNC(=O)c4noc(C5(C)CC5)n4)[C@H](F)C3)n2)cn1 [Example 154]
Result: 1000 to 10000 nM

Problem: Same read-out for CC(C)CN1CCN(Cc2ccc(-c3nc(-c4cnn(C)c4)cn4nccc34)cc2F)C(=O)C1 [Example 34] ?
Result: 1000 to 10000 nM

Problem: Now consider C[C@@H]1C[C@@H](CNC(=O)c2cn(C(C)(C)C)nn2)CCN1c1nc(-c2cnn(C)c2)cn2nccc12 (single isomer, unassigned) [Example 143] and answer again.
Result: 1000 to 10000 nM

Problem: Also CC(C)(C)c1noc(C(=O)NCc2ccc(-c3nc(N4CCOCC4)cn4nccc34)cc2)n1 [Example 24] , if possible.
Result: 1000 to 10000 nM

Problem: Also, Cn1cc(-c2cc3nccn3c(-c3ccc(CNC(=O)c4cnn(C(C)(C)C)c4)cc3)n2)cn1 [Example 57] please.
Result: 1000 to 10000 nM

Problem: Also Cn1cc(-c2cn3ncnc3c(N3CCC(CNC(=O)c4noc(C(C)(C)C)n4)CC3)n2)cn1 [Example 73] ?
Result: 1000 to 10000 nM
